Recorded values, source ChEMBL document CHEMBL4706474.

Assay name: Cmax in Sprague-Dawley rat at 21.3 mg/kg, po measured over 24 hrs by LC-MS analysis
Type: ADME, organism-based
Parameters: route oral, dose 21.3 mg/kg, time >24
Experimental parameters: in vivo
Assay readout: Cmax (µM)

1) Cc1cc(NC2Cc3cc(F)c(F)cc3C2)n2nc(C(C)(F)F)nc2n1 :: 12.5

====

Assay name: Protein binding in human plasma assessed as bound fraction by LC-MS analysis based ultracentrifugation assay
Type: ADME, cell-free
Experimental parameters: read-out: PPB (converted)
Note to self: use t only for fraction unbound readings below 0.04; a reading exactly at 0.04 still gets f.

1) Cc1cc(NC2Cc3cc(F)c(F)cc3C2)n2nc(C(C)(F)F)nc2n1 :: f
2) Cc1cc(N[C@H]2CCc3ccc(Cl)cc3C2)n2nc(C(C)(F)F)nc2n1 :: t
3) Cc1cc(NC2CCc3ccc(Br)cc3C2)n2nc(C(C)(F)F)nc2n1 (stereo in doubt) :: t
4) Cc1cc(NC2CCc3cc(Br)ccc3C2)n2nc(C(C)(F)F)nc2n1 (stereo in doubt) :: t
5) Cc1cc(NC2CCc3cc(Cl)ccc3C2)n2nc(C(C)(F)F)nc2n1 (stereo in doubt) :: t
